Test system: SMMC-7721
Assay: Cytotoxicity in human SMMC7721 cells assessed as reduction in cell viability incubated for 48 hrs by MTT assay
Format: functional, cell-based
Conditions: SMMC-7721, 48 h
Where a name gives a salt, the structure may show the parent alone.
Measured Parameter: pIC50
Numbers only, as −log10 of the molar value.

Compound	System Tested	pIC50
COc1cccc2c1C(=O)c1c(O)c3c(c(O)c1C2=O)C[C@@](O)(C(=O)CO)C[C@@H]3O[C@H]1C[C@H](N)[C@H](O)[C@H](C)O1 [DOXORUBICIN HYDROCHLORIDE]	SMMC-7721	6.10

Report pIC50 for every entry below.
1. CC(C)=CCCC(C)(O)CCc1c(O)cc(O)cc1CCc1ccccc1 (racemic)
2. CC(C)=CCC[C@@]1(C)C=Cc2c(CCc3ccccc3)cc(O)cc2O1

[4.41, 4.61]

Report pIC50 for every entry below.
1. CC(C)=CCC/C(C)=C/Cc1c(O)cc(O)cc1CCc1ccccc1
2. C=C(C)[C@H]1CC[C@@]2(C)Oc3cc(O)cc(CCc4ccccc4)c3[C@@H]1[C@H]2O

4.61
4.55

Taken from ChEMBL document CHEMBL4339251.
